Attribute: growth
- System: MDA-MB-231 breast
- assay-name: NCI-60 one-dose screen, 48 h (100 = growth as untreated, 0 = no growth, -100 = all killed)
- test-settings: 10 µM unless noted
About 83,000 compounds went through this panel and 20% of them were active in at least one assay; those are over-represented in the sample as a whole. Activity calls are given as the source filed them. The calls were made as follows: active = growth percent below 10; inactive = the rest.

# compound-structure, growth
rows = [
    ("O=[N+]([O-])c1cccc(-c2nc3sccn3c2-c2ccnc(NCCCNS(=O)(=O)c3cccc(F)c3)n2)c1", "47.6% (inactive)"),
    ("COc1ccc(-c2cc(NC(=O)Nc3ccc(O)cc3)no2)cc1", "67.5% (inactive)"),
    ("CC(C)Oc1nc2c(c(=O)n(C)c(=O)n2C)n1C", "103% (inactive)"),
    ("O=C(/C=C/c1cccc(Br)c1)c1ccccc1", "92.7% (inactive)"),
]

As a next step, examine the compound that follows.
Note down growth recorded for CCOC(=O)c1cnc2ccc(OC)cc2c1Nc1cccc(S(=O)(=O)NC)c1 100% (inactive)

====

- Tested on: TK-10 renal
- assay-name: NCI-60 one-dose screen, 48 h (100 = growth as untreated, 0 = no growth, -100 = all killed)
- test-settings: 10 µM unless noted
This is part of a sample that, as a whole, favours compounds with a hit. Of some 83,000 tested, about 20% had one in any assay.
property: growth (%)
Your answer should be a plain number; it is taken to be in %.

# molecule, property, output-unit, assay-result
rows = [
    ("CC(=O)O[C@H]1CC[C@]2(C)[C@H]3CC[C@@H]4[C@H]5[C@H](C(C)C)CC[C@]5(C(=O)OCC(CO)(CO)N=C(N)N)CC[C@@]4(C)[C@]3(C)CC[C@H]2C1(C)C", "growth", "%", 88),
    ("COc1cnc2c(c1)C(=O)c1c-2n(CCCN2CCCC2)c(=O)c2cc([N+](=O)[O-])ccc12", "growth", "%", 13.2),
    ("CC(C)CC(CC1=CCC2CC1C2(C)C)C1=C(O)C(C)(C)C(=O)C(C)(C)C1=O (centres undefined)", "growth", "%", 15.6),
]

As a next step, examine the molecule that follows.
Note down growth recorded for Nc1c(C(=O)Nc2cccc3c2OCCO3)sc2nc3c(cc12)CN(Cc1ccccc1)CC3 96.8

====

- Test system: OVCAR-5 ovarian
- assay-name: NCI-60 one-dose screen, 48 h (100 = growth as untreated, 0 = no growth, -100 = all killed)
- test-settings: 10 µM unless noted
About 83,000 compounds went through this panel and 20% of them were active in at least one assay; those are over-represented in the sample as a whole.
yes if growth is below 70%. no if not; exact matches included in no.

Look over these answered cases.
# compound, target-or-test-system, class-name
records = [
    ("Nc1nc2c(c3ncccc13)C(c1cccc(Br)c1)Cc1ncccc1-2 (stereo unspecified)", "OVCAR-5 ovarian", "yes"),
    ("C/C(Cc1ccc(Cl)cc1)=C(\\c1ccc(OCCN2CCCCCC2)cc1)c1ccc(OC(=O)Cc2ccccc2)cc1", "OVCAR-5 ovarian", "no"),
    ("Cc1cc(-c2nc3ccccc3s2)ccc1NC(=O)COc1ccc(Cl)cc1", "OVCAR-5 ovarian", "yes"),
    ("COc1ccc(-n2c(C)nc3c(c(C)nn3-c3ccccc3)c2=O)cc1", "OVCAR-5 ovarian", "yes"),
    ("CCC(c1ccc(O)cc1)C(CC)c1ccc(O)c(F)c1 (stereo unspecified)", "OVCAR-5 ovarian", "no"),
]

Kindly consider the entry below.
Does this compound meet the criterion growth < 70%? Nc1nc(SCc2ccccc2)c2ncn(C3CCCC3)c2n1 no

====

Attribute: growth
- Tested on: NCI-H23 lung
- assay-name: NCI-60 one-dose screen, 48 h (100 = growth as untreated, 0 = no growth, -100 = all killed)
- test-settings: 10 µM unless noted
This is part of a sample that, as a whole, favours compounds with a hit. Of some 83,000 tested, about 20% had one in any assay.
Your answer should be a plain number; it is taken to be in %.

Note down growth recorded for O=C(/C=C/c1ccc(Cl)cc1)/C=C/c1cc2ccccc2[nH]c1=O 68

Note down growth recorded for O=C(O)c1cccnc1Br 98.1

Note down growth recorded for O=C([C@@H](COCc1ccccc1)N1C(=O)[C@@H](N2C(=O)OC[C@@H]2c2ccccc2)[C@H]1/C=C/c1ccccc1)N1CCC(CCN2CCCCC2)CC1 87

Note down growth recorded for COc1ccc(CCN2CC=Cn3c2nc2ccccc2c3=O)cc1 25

====

- Test system: K-562 leukemia
- assay-name: NCI-60 one-dose screen, 48 h (100 = growth as untreated, 0 = no growth, -100 = all killed)
- test-settings: 10 µM unless noted
The panel holds about 83,000 compounds, 20% with a hit somewhere; the sample as a whole holds those more often.
fulfilled if growth is below 10%. not fulfilled if not; exact matches included in not fulfilled.

Look over these answered cases.
# compound, class-name
measured = [
    ("COc1ccc(C2Nc3ccccc3-n3cccc32)cc1 (stereo not given)", "not fulfilled"),
    ("CC(=O)O[C@H]1CC[C@]2(C)[C@H]3CC[C@@H]4[C@H]5[C@H](C(C)C)CC[C@]5(C(=O)OCC(CO)(CO)N=C(N)N)CC[C@@]4(C)[C@]3(C)CC[C@H]2C1(C)C", "fulfilled"),
    ("C#Cc1nc2ccccc2c(=O)[nH]1", "fulfilled"),
    ("CCn1cc2c(cc1=O)-c1nc3ccccc3c3ccnc(c13)C2=O", "not fulfilled"),
    ("C=C(C[n+]1ccccc1)[C@@H]1CC[C@]2(C(=O)OC)CC[C@]3(C)[C@H](CC[C@@H]4[C@@]5(C)CC[C@H](O)C(C)(C)[C@@H]5CC[C@]43C)[C@@H]12", "not fulfilled"),
]

Does this compound meet the criterion growth < 10%? NC(=S)N/N=C/c1cc(-c2cccc(N)c2)ccn1 not fulfilled

====

- System: NCI/ADR-RES ovarian
- assay-name: NCI-60 one-dose screen, 48 h (100 = growth as untreated, 0 = no growth, -100 = all killed)
- test-settings: 10 µM unless noted
This is part of a sample that, as a whole, favours compounds with a hit. Of some 83,000 tested, about 20% had one in any assay. Calls of active or inactive are those of the source. Rule for the calls: active = growth percent below 10; inactive = the rest.
Attribute: growth

Examples with their reported growth follow.
# compound, target-or-test-system, growth
measured = [
    ("C=C1CC2(OC1=O)C(=O)Nc1ccccc12 (stereo not given)", "NCI/ADR-RES ovarian", "66.5% (inactive)"),
    ("COc1ccc(C/C(C)=C(\\c2ccc(OCCN3CCCCCC3)cc2)c2ccc(OC(=O)C3CCCCC3)cc2)cc1", "NCI/ADR-RES ovarian", "73.5% (inactive)"),
    ("Cc1cc(=O)oc2cc(Oc3nc(-c4ccc(Cl)cc4)cn4c(-c5ccc(Cl)cc5)cnc34)ccc12", "NCI/ADR-RES ovarian", "78.8% (inactive)"),
    ("O=C1Nc2ccccc2C12CC(c1ccccc1)=NN2 (stereo not given)", "NCI/ADR-RES ovarian", "41.5% (inactive)"),
    ("COc1ccc(C2CC(=O)Nc3c2c(C)nn3-c2nc3ccccc3[nH]2)cc1 (stereo not given)", "NCI/ADR-RES ovarian", "96.3% (inactive)"),
]

Note down growth recorded for COc1cc(-c2c3c(nc4c2c(C)nn4-c2ccccc2)-c2ccccc2C(=O)C3=O)cc(OC)c1OC 79.7% (inactive)

Note down growth recorded for CC(=O)C1=C(O)C=C2Oc3c(C(=O)/C=C/c4c(Cl)cccc4Cl)c(O)c(C)c(O)c3[C@]2(C)C1=O -23.4% (active)

Note down growth recorded for COc1ncc(-c2ccc3ncnc(Nc4cccc(Cl)c4)c3c2)cc1NS(C)(=O)=O 51% (inactive)

Note down growth recorded for COc1cc(NCCCCN=C(N)N)c2ncccc2c1 104% (inactive)

Note down growth recorded for CC(=O)C1=C(O)C=C2Oc3c(C(=O)/C=C/c4ccccc4)c(O)c(C)c(O)c3[C@]2(C)C1=O 16.9% (inactive)

Note down growth recorded for CCCCCCCCCCCCCC(=O)C(C)N (stereo not given) 75.8% (inactive)

Note down growth recorded for CC#Cc1nc2ccccc2c(=O)[nH]1 55% (inactive)

Note down growth recorded for CCCN(CCC)CN(CCC)CCC 105% (inactive)

Note down growth recorded for Cc1ccc(Nc2nc(N)nc(Nc3ccc4ccccc4c3)n2)cc1 30.6% (inactive)

Note down growth recorded for Cc1nc2sc(C(=O)Nc3cccc4c3OCCO4)c(N)c2cc1C(C)O (stereo not given) 31% (inactive)

====

- Tested on: RXF 393 renal
- assay-name: NCI-60 one-dose screen, 48 h (100 = growth as untreated, 0 = no growth, -100 = all killed)
- test-settings: 10 µM unless noted
Compounds without any hit were thinned out: in the full panel of roughly 83,000, 20% have a hit.
property: growth (%)
Your answer should be a plain number; it is taken to be in %.

Examples with their reported growth follow.
# compound, growth / %
data = [
    ("Cc1ccc(Nc2c(C(N)=O)cnc3ccc(-c4csc(N)n4)cc23)cc1", 98.3),
    ("CCCN(CCC)CN(CCC)CCC", 98.2),
    ("CC(C)[C@H]1COC(=O)N1[C@@H]1C(=O)N([C@@H](CCC(=O)N2CCN(C3CCCC3)CC2)C(=O)N[C@@H]2CCCc3ccccc32)[C@@H]1/C=C/c1cccc(Br)c1", 53.3),
    ("CC(=O)Nc1ccc2c(c1)c(NC(C)=O)nn2C(=O)Nc1ccc(Cc2ccccc2)cc1", 92.6),
]

Note down growth recorded for CSc1[nH]c2ncnc(N)c2c1C#N 151

Note down growth recorded for O=C(COCc1c(-c2ccccc2)no[n+]1[O-])Nc1ccc(C(=O)/C=C/c2ccc3c(c2)OCO3)cc1 95.9

Note down growth recorded for CCCCN(CC)CCCCCCCCCCN1CCCc2cc(OC)ccc21 92.7

Note down growth recorded for O=C1Nc2ccccc2C12CC(c1ccc(Cl)cc1)=NN2 (centres undefined) 99.4

Note down growth recorded for COc1ccc(S(=O)(=O)NCCNc2nccc(-c3c(-c4cccc(N)c4)nc4sccn34)n2)cc1 107

Note down growth recorded for COc1ccc(-c2nn(-c3ccccc3)cc2/C=C2\SC(=O)NC2=O)cc1 114

Note down growth recorded for CCOC(=O)c1cnc2cc(Cl)c(F)cc2c1Nc1cccc(NS(C)(=O)=O)c1 89.3

Note down growth recorded for COc1cc(C2C(C(=O)c3cccs3)=C(O)C(=O)N2CCN2CCOCC2)cc(OC)c1OC (centres undefined) 100

Note down growth recorded for O=C(Nc1ccc(CN2CCOCC2)cc1)c1[nH]ncc1Nc1ncnc2sccc12 -43

Note down growth recorded for COc1cc(/C=N/N(C)C)ccc1O 105
